A collection of compounds and their measured IC50
- STUDY_TARGET: KRAS G12C (Homo sapiens, UniProt P01116, G12C)
- Sequence (P01116 1-188 isoform P01116-2 G12C): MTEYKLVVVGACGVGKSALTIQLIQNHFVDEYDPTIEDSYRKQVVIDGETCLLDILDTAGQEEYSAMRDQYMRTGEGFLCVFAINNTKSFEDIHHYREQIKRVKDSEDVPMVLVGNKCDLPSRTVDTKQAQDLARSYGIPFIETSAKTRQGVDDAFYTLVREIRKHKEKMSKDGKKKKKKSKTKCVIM
- PROCEDURE_TEXT: KRAS G12C NEA-HTRF experiment (SOS1-catalyzed displacement of GDP by GTP)
Your answer is read as nM, so omit the unit and give the number.

Before answering, review these 5 worked examples.
COMPOUND	IC50, nM
C=CC(=O)N1CCN2C(=O)c3c(N4C[C@H](N5CCN(C)CC5)CC4(C)C)nc(-c4c(F)cccc4Cl)c(Cl)c3OC[C@H]2C1 (single isomer, unassigned)	113
C=CC(=O)N1CCN2C(=O)c3c(N4CC(C)(C)OC[C@@H]4C)nc(-c4c(O)cccc4F)c(Cl)c3OC[C@H]2C1	113
C=CC(=O)N1CCN2C(=O)c3c(N4C[C@@H](NCC(F)(F)F)CC4(C)C)nc(-c4ccccc4F)c(Cl)c3OC[C@H]2C1 (single isomer, unassigned)	23.4
C=CC(=O)N1CCN2C(=O)c3c(N4CCC(O)C4(C)C)nc(-c4c(O)cccc4F)c(Cl)c3OC[C@H]2C1 (stereo partly shown)	18
C=CC(=O)N1CCN2C(=O)c3c(N4C[C@@H](C)O[C@H](C)C4)nc(-c4c(O)cccc4F)c(Cl)c3OC[C@H]2C1	169

Respond only with IC50 recorded for `C=CC(=O)N1CCN2C(=O)c3c(N4CCN(C(=O)CC)C[C@@H]4C)nc(-c4c(O)cccc4F)c(Cl)c3OC[C@H]2C1`
9

Tell me measured IC50 for C=CC(=O)N1CCN2C(=O)c3c(N4CCN(C5COC5)C[C@@H]4C)nc(-c4c(O)cccc4F)c(Cl)c3OC[C@H]2C1 (single isomer, unassigned) please.
124

Indicate its recorded IC50; the compound in question is C=CC(=O)N1CCN2C(=O)c3c(N4C[C@H](N5CCC5)CC4(C)C)nc(-c4ccccc4F)c(Cl)c3OC[C@H]2C1 (single isomer, unassigned)
461

For the compound C=CC(=O)N1CCN2C(=O)c3c(N4CCC(OC)C4(C)C)nc(-c4c(N)cccc4F)c(Cl)c3OC[C@H]2C1 (stereo partly shown) , give its reported IC50.
18.3

Tell me its IC50 given C=CC(=O)N1CCN2C(=O)c3c(N4C[C@@H](N5CCN(C)CC5)CC4(C)C)nc(-c4c(O)cccc4F)c(Cl)c3OC[C@H]2C1 (single isomer, unassigned) as the entry.
5

---

- Test system: KRAS G12C mutant NCI-H358 cells
- PROCEDURE_TEXT: Cell proliferation inhibition experiment, 3D spheroid, CellTiter-Glo, NCI-H358
- Assay type: cell-based, human
- MEASUREMENT_CONTEXT: Homo sapiens, NCI-H358, 120 h, NCI-H358 (KRAS G12C mutant) 3D spheroid, 5 days with compound, CellTiter-Glo; read-out: H358 IC50
PROPERTY: log10(IC50) (log10 of the value in nM)
Values reflect log10 of reported IC50 (nM).

COMPOUND	log10(IC50)
C=CC(=O)N1CCN2C(=O)c3c(N4CCN(C5COC5)CC4C)nc(-c4c(O)cccc4F)c(Cl)c3OC[C@H]2C1 (stereo partly drawn)	1.36
C=CC(=O)N1CCN2C(=O)c3c(N4CCN(C(=O)C5CC5)C[C@@H]4C)nc(-c4c(O)cccc4F)c(Cl)c3OC[C@H]2C1	0.11
C=CC(=O)N1CCN2C(=O)c3c(N4CCOC[C@@H]4C)nc(-c4c(O)cccc4F)c(Cl)c3OC[C@H]2C1	0.95
C=CC(=O)N1CCN2C(=O)c3c(N4CCN(C5COC5)C[C@H]4C)nc(-c4c(O)cccc4F)c(Cl)c3OC[C@H]2C1 (single isomer, unassigned)	1.75
C=CC(=O)N1CCN2C(=O)c3c(N4CCOC5CC54)nc(-c4c(O)cccc4F)c(Cl)c3OC[C@H]2C1 (stereo partly drawn)	1.34

Turning now to a further compound:
Item C=CC(=O)N1CCN2C(=O)c3c(N4C[C@H](N(C)CCOC)CC4(C)C)nc(-c4c(O)cccc4F)c(Cl)c3OC[C@H]2C1 (single isomer, unassigned) : provide log10(IC50)
0.38

---

- System: KRAS G12C mutant NCI-H358 cells
- PROCEDURE_TEXT: Cell proliferation inhibition experiment, 3D spheroid, CellTiter-Glo, NCI-H358
- Type: cell-based, human
- MEASUREMENT_CONTEXT: Homo sapiens, NCI-H358, 120 h, NCI-H358 (KRAS G12C mutant) 3D spheroid, 5 days with compound, CellTiter-Glo; read-out: H358 IC50
For each record, check the reported IC50: if it is below 20 nM write MET, else write NOT MET.

COMPOUND	STUDY_TARGET	ANSWER_LABEL
C=CC(=O)N1CCN2C(=O)c3c(N4C[C@@H](N5CC(OC)C5)CC4(C)C)nc(-c4ccccc4F)c(Cl)c3OC[C@H]2C1	KRAS G12C mutant NCI-H358 cells	MET
C=CC(=O)N1CCN2C(=O)c3c(N4CC[C@@H](OC)C4(C)C)nc(-c4c(O)cccc4F)c(F)c3OC[C@H]2C1 (single isomer, unassigned)	KRAS G12C mutant NCI-H358 cells	MET
C=CC(=O)N1CCN2C(=O)c3c(N4C[C@@H](C)O[C@H](C)C4)nc(-c4c(O)cccc4F)c(Cl)c3OC[C@H]2C1	KRAS G12C mutant NCI-H358 cells	MET
C=CC(=O)N1CCN2C(=O)c3c(N4CCCC4(C)C)nc(-c4ccccc4F)c(Cl)c3OC[C@H]2C1	KRAS G12C mutant NCI-H358 cells	NOT MET
C=CC(=O)N1CCN2C(=O)c3c(N4C[C@H](N(C)CC(F)(F)F)CC4(C)C)nc(-c4ccccc4F)c(Cl)c3OC[C@H]2C1 (single isomer, unassigned)	KRAS G12C mutant NCI-H358 cells	NOT MET

Field: next compound
Is IC50 of C=CC(=O)N1CCN2C(=O)c3c(N4C[C@@H](NCC(F)(F)F)CC4(C)C)nc(-c4ccccc4F)c(Cl)c3OC[C@H]2C1 (single isomer, unassigned) strictly below 20 nM?
MET

---

Entries and their IC50 values follow.
- Test system: KRAS G12C mutant NCI-H358 cells
- PROCEDURE_TEXT: Cell proliferation inhibition experiment, 3D spheroid, CellTiter-Glo, NCI-H358
- Type: cell-based, human
- MEASUREMENT_CONTEXT: Homo sapiens, NCI-H358, 120 h, NCI-H358 (KRAS G12C mutant) 3D spheroid, 5 days with compound, CellTiter-Glo; read-out: H358 IC50
API: value field is a number in nM; no unit string.

Example molecules with recorded IC50:
MOLECULE	STUDY_TARGET	UNIT_STRING	RECORDED_RESULT
C=CC(=O)N1CCN2C(=O)c3c(N4CCC[C@@]4(C)C(=O)NC)nc(-c4c(F)cccc4OC)c(Cl)c3OC[C@H]2C1 (single isomer, unassigned)	KRAS G12C mutant NCI-H358 cells	nM	49
C=CC(=O)N1CCN2C(=O)c3c(N4C[C@@H](N5CCN(C)CC5)CC4(C)C)nc(-c4ccccc4F)c(Cl)c3OC[C@H]2C1 (single isomer, unassigned)	KRAS G12C mutant NCI-H358 cells	nM	1.2
C=CC(=O)N1CCN2C(=O)c3c(N4C[C@H](N5CCN(C)CC5)CC4(C)C)nc(-c4ccccc4F)c(F)c3OC[C@H]2C1 (single isomer, unassigned)	KRAS G12C mutant NCI-H358 cells	nM	63.3

Supply recorded IC50 for `C=CC(=O)N1CCN2C(=O)c3c(N4CCN(C)C[C@@H]4C)nc(-c4c(F)ccc(F)c4O)c(Cl)c3OC[C@H]2C1` here.
20

Given C=CC(=O)N1CCN2C(=O)c3c(N4CC[C@H](OC)C4(C)C)nc(-c4c(O)cccc4F)c(Cl)c3OC[C@H]2C1 (single isomer, unassigned) [Z241a-1] , respond with its IC50.
1.4

Query IC50 for `C=CC(=O)N1CCN2C(=O)c3c(NC(C)(C)C)nc(-c4c(O)cccc4F)c(Cl)c3OC[C@H]2C1`
9

---

- Test system: KRAS G12C mutant NCI-H358 cells
- PROCEDURE_TEXT: Cell proliferation inhibition experiment, 3D spheroid, CellTiter-Glo, NCI-H358
- Assay type: cell-based, human
- MEASUREMENT_CONTEXT: Homo sapiens, NCI-H358, 120 h, NCI-H358 (KRAS G12C mutant) 3D spheroid, 5 days with compound, CellTiter-Glo; read-out: H358 IC50
# if measured IC50 < 20 nM: condition met  # else: condition not met

Sample answers from the record:
COMPOUND	ANSWER_LABEL
C=CC(=O)N1CCN2C(=O)c3c(N4C[C@@H](CO)CC4(C)C)nc(-c4c(O)cccc4F)c(Cl)c3OC[C@H]2C1 (single isomer, unassigned)	condition met
C=CC(=O)N1CCN2C(=O)c3c(N4C[C@H](N5CCN(C)CC5)CC4(C)C)nc(-c4ccccc4F)c(Cl)c3OC[C@H]2C1 (single isomer, unassigned)	condition met
C=CC(=O)N1CCN2C(=O)c3c(N4CC[C@@H]4C)nc(-c4c(O)cccc4F)c(Cl)c3OC[C@H]2C1	condition met
C=CC(=O)N1CCN2C(=O)c3c(N4CC(N5CC(OC)C5)CC4(C)C)nc(-c4ccccc4F)c(Cl)c3OC[C@H]2C1 (single isomer, unassigned)	condition not met
C=CC(=O)N1CCN2C(=O)c3c(N4CCN(C)C[C@@H]4C)nc(-c4c(O)ccc(Cl)c4F)c(Cl)c3OC[C@H]2C1	condition met

Below 20 nM on IC50? Entry C=CC(=O)N1CCN2C(=O)c3c(N4Cc5nn(C)cc5[C@H]4C)nc(-c4c(O)cccc4F)c(Cl)c3OC[C@H]2C1 (single isomer, unassigned)
condition not met

is_below(IC50, 20 nM) for `C=CC(=O)N1CCN2Cc3c(Nc4c(C)ccnc4C(C)C)nc(-c4c(O)cccc4F)c(Cl)c3OC[C@H]2C1` ?
condition not met

I'd appreciate it if you could check whether C=CC(=O)N1CCN2C(=O)c3c(N4CC[C@H](N(C)C)C4(C)C)nc(-c4c(O)cccc4F)c(Cl)c3OC[C@H]2C1 (single isomer, unassigned) has IC50 smaller than 20 nM.
condition met

IC50 strictly < 20 nM for this compound? C=CC(=O)N1CCN2C(=O)c3c(N4CCNC(C)C4C)nc(-c4c(O)cccc4F)c(Cl)c3OC[C@H]2C1 (stereo partly shown)
condition not met

Is 20 nM strictly greater than the compound's reported IC50? compound: `C=CC(=O)N1CCN2C(=O)c3c(N4CCN(C)C5(CC5)C4)nc(-c4c(O)cccc4F)c(Cl)c3OC[C@H]2C1`
condition met

Consider the compound `C=CC(=O)N1CCN2C(=O)c3c(N4C[C@@H](N(C)C)C[C@@H]4C)nc(-c4c(O)cccc4F)c(Cl)c3OC[C@H]2C1` . Is its IC50 strictly less than 20 nM?
condition met

Dear reviewer, please state whether C=CC(=O)N1CCN2C(=O)c3c(N4C[C@](C)(O)CC4(C)C)nc(-c4c(O)cccc4F)c(F)c3OC[C@H]2C1 (single isomer, unassigned) [Z256b-2] has IC50 strictly beneath 20 nM.
condition not met

Field: below-cutoff. Rule: recorded IC50 strictly less than 20 nM. Subject: `C=CC(=O)N1CCN2C(=O)c3c(N[C@H](C)c4ccccc4)nc(-c4c(O)cccc4F)c(Cl)c3OC[C@H]2C1`
condition not met
